Cited source for all entries: the supplement of paper PMC10567573

B1: ADD1 (parent)
chain: FASDGDSGTCSPLRHSFQKQQREK

- Variants of: B1
- experimental protocol: protein stability index of a GFP-peptide fusion (GPS, HEK-293T) (PSI 1-6); higher = more stable;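 also: lentivirally expressed fusions sorted by FACS into six bins by GFP to DsRed ratio, PSI derived from sequencing read proportions per bin multiplied by bin number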
- stated conditions: c terminus: a fixed tail appended
Parameter: protein stability index. Scope: all listed entries.
Returns: the value as a bare number; no unit string appended.

Worked examples, 5 variants total:
# mutation code, protein stability index
measured = [
    ("S16Y", 3.88),
    ("C10V", 3.85),
    ("D6C", 3.01),
    ("G8C", 3.1),
    ("F17E", 4.34),
]

Inquiry: Identify the reported protein stability index for the following entry. `Q20E`
Reply text: 4.16

Inquiry: Assign protein stability index to the following record: `K19H`
Reply text: 4.43

Inquiry: // fetch protein stability index given entry `F1T`
Reply text: 5.55

Inquiry: Tell me measured protein stability index for `Q20S` please.
Reply text: 4.55

Inquiry: Given `D6V` , respond with its protein stability index.
Reply text: 3.13

Inquiry: Return protein stability index (reported value) for this variant: `S7N`
Reply text: 4.14
